target: human PTH1R (Homo sapiens (Human)); assay: In vitro cAMP signal activity via the human PTH1R (HKRK-B7 cells); assay type: cell-based; conditions: concentration giving 20% cAMP signaling activity, 100 nM human PTH(1-34) = 100%
Reported EC20 values follow for various molecules
Answer in µM, number only, no unit symbol.

>>> reportedresult("Cc1cc(N2C(=O)NC(=O)C23COC3)cc(C)c1CCS(=O)(=O)N1CCC2(CC1)N=C(c1ccc(OC(F)(F)F)cc1)NC2=O [Compound 10]")
5.0

Kindly review the next molecule as well.
I am curious: what EC20 value has been reported for Cc1cc(N2C(=O)NC(=O)C2(C)C)cc(C)c1CCS(=O)(=O)N1CCC2(CC1)N=C(c1cccc(C(F)(F)F)c1)NC2=O [Compound 6] ?
2.0

----------
experiment: Metabolic stability using human liver microsomes; assay type: in vitro ADME; conditions: pH 7.4; human liver microsomes 0.5 mg/mL, compound 1 μM, NADPH 1 mM, 37° C.; read-out: Clearance
microsomal CLint at 1 μM under 40 µL/min/mg gets Fulfilled, anything at or over 40 µL/min/mg gets Not fulfilled.

>>> cat("Cc1cc(N2C(=O)NC(=O)C2(C)C)cc(C)c1CCS(=O)(=O)N1CCC2(CC1)N=C(c1cccc(Br)c1)NC2=O [Compound 2]")
"Fulfilled"
>>> cat("Cc1cc(N2C(=O)CNC2=O)ccc1CCS(=O)(=O)N1CCC2(CC1)N=C(c1cccc(OC(F)(F)F)c1)NC2=O [Comparative Example 1, reference compound]")
"Not fulfilled"
>>> cat("Cc1cc(N2C(=O)NC(=O)C2(C)C)cc(C)c1CCS(=O)(=O)N1CCC2(CC1)N=C(c1ccc(OC(F)(F)F)cc1)NC2=O [Compound 7]")
"Fulfilled"
>>> cat("CCC1CCC(C2=NC3(CCN(S(=O)(=O)CCc4ccc(N5C(=O)NC(=O)C5(C)C)cc4C)CC3)C(=O)N2)CC1 (stereo not drawn) [Comparative Example 6, reference compound]")
"Not fulfilled"
>>> cat("Cc1cc(N2C(=O)NC(=O)C23CCN(C)CC3)cc(C)c1CCS(=O)(=O)N1CCC2(CC1)N=C(c1ccc(OC(F)(F)F)cc1)NC2=O [Compound 9]")
"Fulfilled"

Is 40 µL/min/mg strictly greater than the compound's reported microsomal CLint at 1 μM? compound: Cc1cc(N2C(=O)NC(=O)C2(C)C)cc(C)c1CCS(=O)(=O)N1CCC2(CC1)N=C(c1ccc3c(c1)OC(F)(F)O3)NC2=O [Compound 5]
Fulfilled

----------
molecular target: human PTH1R (Homo sapiens (Human)); test: In vitro cAMP signal activity via the human PTH1R (HKRK-B7 cells); format: cell-based; conditions: concentration giving 20% cAMP signaling activity, 100 nM human PTH(1-34) = 100%
Assign class by EC20: not lower than 3 µM means true (1); lower than 3 µM means false (0).

Tell me whether EC20 is at least 3 µM here: `Cc1cc(N2C(=O)NC(=O)C2(C)C)cc(C)c1CCS(=O)(=O)N1CCC2(CC1)N=C(c1ccc(OC(F)(F)F)c(F)c1)NC2=O`
false (0)

Is it the case that Cc1cc(N2C(=O)CNC2=O)cc(C)c1CCS(=O)(=O)N1CCC2(CC1)N=C(c1cccc(OC(F)(F)F)c1)NC2=O [Comparative Example 2, reference compound] has EC20 reaching or exceeding 3 µM?
true (1)

Please tell me: is the compound `Cc1cc(N2C(=O)NC(=O)C2(C)C)cc(C)c1CCS(=O)(=O)N1CCC2(CC1)N=C(c1ccc3c(c1)OC(F)(F)O3)NC2=O` at or over 3 µM in terms of EC20?
false (0)

EC20 >= 3 µM for CCC1CCC(C2=NC3(CCN(S(=O)(=O)CCc4ccc(N5C(=O)NC(=O)C5(C)C)cc4C)CC3)C(=O)N2)CC1 (stereo not drawn) [Comparative Example 6, reference compound] ?
true (1)

hey, is EC20 for this one >= 3 µM? `Cc1cc(N2C(=O)NC(=O)C2(C)C)cc(C)c1CCS(=O)(=O)N1CCC2(CC1)N=C(c1cccc(Br)c1)NC2=O`
false (0)

Check the entry CCC1CCC(C2=NC3(CCN(S(=O)(=O)CCc4ccc(N5C(=O)NC(=O)C5C)cc4C)CC3)C(=O)N2)CC1 (stereo not drawn) [Comparative Example 5, reference compound] : does EC20 equal or exceed 3 µM?
true (1)

----------
biological target: human PTH1R (Homo sapiens (Human), UniProt Q03431); assay: In vitro cAMP signal activity via the human PTH1R (HKRK-B7 cells); conditions: concentration giving 50% cAMP signaling activity, 100 nM human PTH(1-34) = 100%
Sequence (Q03431 27-593): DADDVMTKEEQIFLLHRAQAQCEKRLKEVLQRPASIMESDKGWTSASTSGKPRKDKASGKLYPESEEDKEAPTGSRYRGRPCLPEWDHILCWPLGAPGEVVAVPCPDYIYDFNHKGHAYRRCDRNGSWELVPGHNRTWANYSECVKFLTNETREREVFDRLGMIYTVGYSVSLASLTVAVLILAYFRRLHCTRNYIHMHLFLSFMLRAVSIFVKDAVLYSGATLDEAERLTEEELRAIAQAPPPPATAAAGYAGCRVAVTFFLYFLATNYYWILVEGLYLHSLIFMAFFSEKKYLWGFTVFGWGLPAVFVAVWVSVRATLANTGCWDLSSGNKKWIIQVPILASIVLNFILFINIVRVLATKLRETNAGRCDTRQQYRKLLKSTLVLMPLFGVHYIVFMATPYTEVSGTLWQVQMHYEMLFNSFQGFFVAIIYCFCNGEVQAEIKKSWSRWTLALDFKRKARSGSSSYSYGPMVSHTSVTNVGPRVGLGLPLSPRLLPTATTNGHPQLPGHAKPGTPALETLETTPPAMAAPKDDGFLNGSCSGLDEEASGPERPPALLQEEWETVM
measure: EC50 (µM)
# value in µM; strip the unit string

>>> reportedresult("Cc1cc(N2C(=O)NC(=O)C2(C)C)cc(C)c1CCS(=O)(=O)N1CCC2(CC1)N=C(c1ccc3c(c1)OC(F)(F)O3)NC2=O [Compound 5]")
8.1

Which value of EC50 has been reported for CC[C@H]1CC[C@H](C2=NC3(CCN(S(=O)(=O)CCc4ccc(N5C(=O)NC(=O)C5(C)C)cc4C)CC3)C(=O)N2)CC1 [Comparative Example 6, reference compound] in the records?
32

Item under review: Cc1cc(N2C(=O)NC(=O)C2(C)C)cc(C)c1CCS(=O)(=O)N1CCC2(CC1)N=C(c1ccc(F)c(OC(F)(F)F)c1)NC2=O [Compound 1] . Reported EC50?
5.8

----------
target: rat PTH1R (Rattus norvegicus (Rat)); assay: In vitro cAMP signaling activity via the rat PTH1R (LLC-PK46_RATO_PTH1R cells); format: cell-based; conditions: LLC-PK46_RATO_PTH1R cells overexpressing rat PTH1R; 20% cAMP signaling activity
Sequence (P25961 27-591): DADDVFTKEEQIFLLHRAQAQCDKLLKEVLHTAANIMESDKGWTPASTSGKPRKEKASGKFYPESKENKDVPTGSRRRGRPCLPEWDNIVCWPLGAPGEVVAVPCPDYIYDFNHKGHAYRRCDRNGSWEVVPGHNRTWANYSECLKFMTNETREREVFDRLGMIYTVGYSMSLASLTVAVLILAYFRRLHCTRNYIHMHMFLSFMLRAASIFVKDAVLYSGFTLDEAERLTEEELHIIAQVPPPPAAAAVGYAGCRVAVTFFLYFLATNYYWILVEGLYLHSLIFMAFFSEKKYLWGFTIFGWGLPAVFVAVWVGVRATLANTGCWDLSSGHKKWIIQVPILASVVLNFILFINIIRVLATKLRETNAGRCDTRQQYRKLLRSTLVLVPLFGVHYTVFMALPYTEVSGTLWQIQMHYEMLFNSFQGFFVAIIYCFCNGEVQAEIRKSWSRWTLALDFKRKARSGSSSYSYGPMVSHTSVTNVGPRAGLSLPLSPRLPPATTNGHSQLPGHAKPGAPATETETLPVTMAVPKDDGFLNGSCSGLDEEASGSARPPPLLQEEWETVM
A collection of compounds and their measured EC20
# output: bare number, implied unit µM

// worked examples, EC20 included
>>> reportedresult("Cc1cc(N2C(=O)NC(=O)C2(C)C)cc(C)c1CCS(=O)(=O)N1CCC2(CC1)N=C(c1ccc(OC(F)(F)F)cc1)NC2=O")
0.5
>>> reportedresult("Cc1cc(N2C(=O)NC(=O)C23CC3)cc(C)c1CCS(=O)(=O)N1CCC2(CC1)N=C(c1ccc(OC(F)(F)F)cc1)NC2=O")
0.8
>>> reportedresult("Cc1cc(N2C(=O)CNC2=O)ccc1CCS(=O)(=O)N1CCC2(CC1)N=C(c1cccc(OC(F)(F)F)c1)NC2=O [Comparative Example 1, reference compound]")
0.8
>>> reportedresult("Cc1cc(N2C(=O)NC(=O)C23CCCC3)cc(C)c1CCS(=O)(=O)N1CCC2(CC1)N=C(c1ccc(OC(F)(F)F)cc1)NC2=O")
0.4

Request the reported EC20 associated with `Cc1cc(N2C(=O)NC(=O)C23COC3)cc(C)c1CCS(=O)(=O)N1CCC2(CC1)N=C(c1ccc(OC(F)(F)F)cc1)NC2=O`
3.0
